assay details: Lactate dehydrogenase (LDH) release cytotoxicity assay
Assay type: cell-based, human
run parameters: human, LS-180 cells; 400 μm, 24 hours; read-out: percent cytotoxicity (LDH release)
endpoint name: cytotoxicity at 24 h, 400 µM

[in] I am curious: what cytotoxicity at 24 h, 400 µM value has been reported for O=S1(=O)CCN(CN2CCS(=O)(=O)NC2)CN1 ?
[out] 1.58%

----------
assay details: Lactate dehydrogenase (LDH) release cytotoxicity assay
Assay type: cell-based, human
run parameters: human, LS-180 cells; 50, 100 and 400 μm; 12 or 24 hours; read-out: percent cytotoxicity (LDH release), all cases
endpoint name: cytotoxicity

[in] Request the reported cytotoxicity associated with O=S1(=O)CCN(CN2CCS(=O)(=O)NC2)CN1
[out] < 2%
